- target.or.test.system: EGFR L858R (BaF3-L858R cells) (Homo sapiens, UniProt P00533, L858R)
- Construct: host or cells: BaF3
- Sequence (P00533 25-1210 L858R): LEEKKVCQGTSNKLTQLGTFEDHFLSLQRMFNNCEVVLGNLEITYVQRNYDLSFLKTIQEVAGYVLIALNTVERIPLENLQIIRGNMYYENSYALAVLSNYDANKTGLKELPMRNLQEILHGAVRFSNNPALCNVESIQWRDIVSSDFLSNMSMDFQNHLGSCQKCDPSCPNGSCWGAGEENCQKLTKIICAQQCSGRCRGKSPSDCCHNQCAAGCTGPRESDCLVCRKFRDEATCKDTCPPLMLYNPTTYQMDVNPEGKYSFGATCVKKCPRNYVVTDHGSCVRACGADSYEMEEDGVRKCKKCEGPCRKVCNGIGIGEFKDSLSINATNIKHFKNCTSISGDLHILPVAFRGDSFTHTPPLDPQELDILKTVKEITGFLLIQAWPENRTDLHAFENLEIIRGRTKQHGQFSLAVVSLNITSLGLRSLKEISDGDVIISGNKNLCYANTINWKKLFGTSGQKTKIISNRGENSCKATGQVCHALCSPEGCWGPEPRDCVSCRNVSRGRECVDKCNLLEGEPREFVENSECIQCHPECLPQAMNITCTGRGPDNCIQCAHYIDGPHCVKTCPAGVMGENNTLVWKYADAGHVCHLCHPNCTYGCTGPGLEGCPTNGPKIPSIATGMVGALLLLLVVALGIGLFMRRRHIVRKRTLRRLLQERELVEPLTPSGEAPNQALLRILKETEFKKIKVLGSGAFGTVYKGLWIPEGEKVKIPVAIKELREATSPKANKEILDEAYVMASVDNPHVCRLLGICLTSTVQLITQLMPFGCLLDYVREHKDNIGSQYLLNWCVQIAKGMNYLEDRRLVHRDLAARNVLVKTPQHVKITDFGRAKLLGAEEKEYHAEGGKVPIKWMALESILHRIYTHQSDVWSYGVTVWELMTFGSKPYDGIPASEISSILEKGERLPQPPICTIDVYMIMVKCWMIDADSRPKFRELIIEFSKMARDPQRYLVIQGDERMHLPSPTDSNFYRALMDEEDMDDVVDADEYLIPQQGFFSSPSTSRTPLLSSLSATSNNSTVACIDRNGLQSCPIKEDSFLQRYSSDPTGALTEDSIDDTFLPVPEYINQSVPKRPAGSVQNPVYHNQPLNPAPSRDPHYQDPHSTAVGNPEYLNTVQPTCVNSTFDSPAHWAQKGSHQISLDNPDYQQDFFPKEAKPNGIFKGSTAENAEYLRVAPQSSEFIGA
- assay.procedure: Cell degradation of EGFR, HTRF assay, BaF3-L858R cells
- Format: cell-based
- details: 16 h treatment, maximum percentage of degradation
Please respond with reported Dmax for every item in the list.
Numbers only; they are read as %.

q: Name the recorded Dmax of the compound listed here: Cc1cc2cc(n1)-c1cnn(C)c1OC[C@H]1CC[C@H](C1)CN1/C(=N/C2=O)Nc2ccc(N3CCN([C@@H]4CCN(c5c(C)cc(C6CCC(=O)NC6=O)nc5C)C[C@@H]4F)CC3)cc21 (stereo partly drawn) [Example 13]
a: 91.5

q: Note down Dmax recorded for Cc1cc2cc(n1)-c1cnn(C)c1OC[C@H]1CCC(C1)CN1/C(=N/C2=O)Nc2cc(F)c(N3CCN(C4CCN(c5cnc(C6CCC(=O)NC6=O)cc5C)CC4)CC3)cc21 (stereo partly drawn) [Example 100]
a: 72.3

q: Tell me its Dmax given Cc1cc2cc(n1)-c1cnn(C)c1OC[C@H]1CCC(C1)CN1/C(=N/C2=O)Nc2ccc(N3CCN(C4CCN(c5cc(F)c(C6CCC(=O)NC6=O)c(F)c5)CC4)[C@@H](C)C3)cc21 (stereo partly drawn) [Example 119] as the entry.
a: 77

q: // Input: Cc1cc2cc(n1)-c1cnn(C)c1OC[C@H]1CC[C@H](C1)CN1/C(=N/C2=O)Nc2ccc(N3CCN(C4CCN(c5ccc(C6CCC(=O)NC6=O)nc5C)CC4)CC3)cc21 (stereo partly drawn) [Example 2] . Output its Dmax only.
a: 87.2

q: Return Dmax for the following compound: Cc1cc2cc(n1)-c1cnn(C)c1OC[C@H]1CCC(C1)CN1/C(=N/C2=O)Nc2cc(C)c(N3CCN([C@@H]4CCN(c5ccc(C6CCC(=O)NC6=O)nc5C)C[C@@H]4F)CC3)cc21 (stereo partly drawn) [Example 102]
a: 85.8

q: Report Dmax for Cc1cc2cc(n1)-c1c(C)nn(C)c1OC[C@H]1CC[C@H](C1)CN1/C(=N/C2=O)Nc2ccc(N3CCC(C)(CN(C)C4CCN(c5cc(F)c([C@H]6CCC(=O)NC6=O)c(F)c5)CC4)CC3)cc21 [Example 168]
a: 80.9

q: Indicate the recorded Dmax value for this compound: COC[C@@H]1CN(c2ccc3c(c2)N2CC4CC[C@H](COc5c(c(C)nn5C)-c5cc(cc(C)n5)C(=O)/N=C/2N3)C4)CCN1C1CCN(c2cc(F)c([C@H]3CCC(=O)NC3=O)c(F)c2)CC1 [Example 80]
a: 88.1

q: Note down Dmax recorded for Cc1cc2cc(n1)-c1cnn(CCO)c1OC[C@H]1CCC(C1)CN1/C(=N/C2=O)Nc2ccc(N3CCN(C4CCN(c5cc(F)c([C@H]6CCC(=O)NC6=O)c(F)c5)CC4)CC3)cc21 [Example 122]
a: 70.7

q: Indicate its recorded Dmax; the compound in question is Cc1cc2cc(n1)-c1c(C)nn(C)c1OC[C@H]1CC[C@H](C1)CN1/C(=N/C2=O)Nc2ccc(N3CCC(CN(C)C4CCN(c5cc(F)c([C@H]6CCC(=O)NC6=O)c(F)c5)CC4)CC3)cc21 [Example 138]
a: 85.5

q: Supply reported Dmax belonging to this compound: Cc1cc2cc(n1)-c1c(C)nn(C)c1OC[C@H]1CC[C@H](C1)CN1/C(=N/C2=O)Nc2ccc(N3CCN(C4CCN(c5cc(F)c([C@H]6CCC(=O)NC6=O)c(F)c5)CC4)C[C@@H]3CF)cc21 [Example 211]
a: 91.3

q: Let me know recorded Dmax for Cc1cc2cc(n1)-c1cnn(C)c1OC[C@H]1CCC(C1)CN1/C(=N/C2=O)Nc2ccc(N3CC(N(C)C4CCN(c5cc(F)c([C@H]6CCC(=O)NC6=O)c(F)c5)CC4)C3)cc21 [Example 124] , thanks.
a: 71.1

q: Provide only the value of recorded Dmax for Cc1cc2cc(n1)-c1c(C)nn(C)c1OC[C@H]1CC[C@H](C1)CN1/C(=N/C2=O)Nc2ccc(N3C[C@@H](C)N(C4CCN(c5cc(F)c([C@H]6CCC(=O)NC6=O)c(F)c5)CC4)C[C@@H]3C)cc21 [Example 200]
a: 85.7

q: Output Dmax of Cc1cc2cc(n1)-c1cnn(C)c1OC[C@H]1CC[C@H](C1)CN1/C(=N/C2=O)Nc2ccc(N3CCN(C4CCN(c5cc(F)c([C@H]6CCC(=O)NC6=O)c(F)c5)CC4)CC34COC4)cc21 [Example 10]
a: 73

q: Supply recorded Dmax for COC[C@@H]1CN(c2ccc3c(c2)N2C[C@@H]4CC[C@H](COc5c(c(C)nn5CCO)-c5cc(cc(C)n5)C(=O)/N=C/2N3)C4)CCN1C1CCN(c2cc(F)c([C@H]3CCC(=O)NC3=O)c(F)c2)CC1 [Example 157] here.
a: 85.8

q: State its Dmax for this compound: Cc1cc2cc(n1)-c1cnn(C)c1OC[C@H]1CC[C@H](C1)CN1/C(=N/C2=O)Nc2ccc(N3CCN([C@@H]4CCN(c5cccc6c5C(C)(C)C(=O)N6C5CCC(=O)NC5=O)C[C@@H]4F)CC3)cc21 (stereo partly drawn) [Example 11]
a: 84.6

q: Please give the documented Dmax of COC[C@@H]1CN(c2ccc3c(c2)N2CC4CC[C@H](COc5c(c(C(F)(F)F)nn5C)-c5cc(cc(C)n5)C(=O)/N=C/2N3)C4)CCN1C1CCN(c2cc(F)c([C@H]3CCC(=O)NC3=O)c(F)c2)CC1 [Example 77]
a: 89.5

q: // Input: COC[C@H]1CN(c2ccc3c(c2)N2CC4CC[C@H](COc5c(c(C(F)(F)F)nn5C)-c5cc(cc(C)n5)C(=O)/N=C/2N3)C4)CCN1C1CCN(c2cc(F)c([C@H]3CCC(=O)NC3=O)c(F)c2)CC1 [Example 95] . Output its Dmax only.
a: 86.5

q: Read off the recorded Dmax for COc1cc2c(cc1N1CCN(C3CCN(c4cc(F)c([C@H]5CCC(=O)NC5=O)c(F)c4)CC3)CC1)N1C[C@@H]3CC[C@H](COc4c(c(C)nn4C)-c4cc(cc(C)n4)C(=O)/N=C/1N2)C3 [Example 152]
a: 86.6

---

- target.or.test.system: p-EGFR L858R (BaF3-L858R cells) (Homo sapiens, UniProt P00533, L858R)
- assay.procedure: Cell p-EGFR inhibition assay, HTRF, BaF3-L858R cells
- details: 16 h treatment, pEGFR inhibition
Kindly supply the reported IC50 values for the records listed here.
The figure you give is taken to be in nM; do not add the unit.

q: State its IC50 for this compound: COC[C@@H]1CN(c2ccc3c(c2)N2CC4CC[C@H](COc5c(cnn5C)-c5cc(cc(C)n5)C(=O)/N=C/2N3)C4)CCN1C1CCN(c2ccc(NC3CCC(=O)NC3=O)cc2C)CC1 (stereo partly drawn) [Example 118]
a: 7.3

q: Give recorded IC50. Cc1cc2cc(n1)-c1cnn(C)c1OC[C@H]1CC[C@H](C1)CN1/C(=N/C2=O)Nc2ccc(N3CCN(C4CCN(c5ccc([C@H]6CCC(=O)NC6=O)nc5C)CC4)[C@H](C)C3)cc21 [Example 162]
a: 3.68

q: Assign IC50 to the following record: Cc1cc2cc(n1)-c1c(C)nn(C)c1OC[C@H]1CCC(C1)CN1/C(=N/C2=O)Nc2ccc(N3CCC(N(C)C4CCN(c5cc(F)c([C@H]6CCC(=O)NC6=O)c(F)c5)CC4)CC3)cc21 [Example 136]
a: 8.91

---

- target.or.test.system: p-EGFR Del19/C797S (H1975-clone #23 cells) (Homo sapiens)
- Sequence (P00533 with tags, fused parts or gaps DEL746-750/C797S, form open): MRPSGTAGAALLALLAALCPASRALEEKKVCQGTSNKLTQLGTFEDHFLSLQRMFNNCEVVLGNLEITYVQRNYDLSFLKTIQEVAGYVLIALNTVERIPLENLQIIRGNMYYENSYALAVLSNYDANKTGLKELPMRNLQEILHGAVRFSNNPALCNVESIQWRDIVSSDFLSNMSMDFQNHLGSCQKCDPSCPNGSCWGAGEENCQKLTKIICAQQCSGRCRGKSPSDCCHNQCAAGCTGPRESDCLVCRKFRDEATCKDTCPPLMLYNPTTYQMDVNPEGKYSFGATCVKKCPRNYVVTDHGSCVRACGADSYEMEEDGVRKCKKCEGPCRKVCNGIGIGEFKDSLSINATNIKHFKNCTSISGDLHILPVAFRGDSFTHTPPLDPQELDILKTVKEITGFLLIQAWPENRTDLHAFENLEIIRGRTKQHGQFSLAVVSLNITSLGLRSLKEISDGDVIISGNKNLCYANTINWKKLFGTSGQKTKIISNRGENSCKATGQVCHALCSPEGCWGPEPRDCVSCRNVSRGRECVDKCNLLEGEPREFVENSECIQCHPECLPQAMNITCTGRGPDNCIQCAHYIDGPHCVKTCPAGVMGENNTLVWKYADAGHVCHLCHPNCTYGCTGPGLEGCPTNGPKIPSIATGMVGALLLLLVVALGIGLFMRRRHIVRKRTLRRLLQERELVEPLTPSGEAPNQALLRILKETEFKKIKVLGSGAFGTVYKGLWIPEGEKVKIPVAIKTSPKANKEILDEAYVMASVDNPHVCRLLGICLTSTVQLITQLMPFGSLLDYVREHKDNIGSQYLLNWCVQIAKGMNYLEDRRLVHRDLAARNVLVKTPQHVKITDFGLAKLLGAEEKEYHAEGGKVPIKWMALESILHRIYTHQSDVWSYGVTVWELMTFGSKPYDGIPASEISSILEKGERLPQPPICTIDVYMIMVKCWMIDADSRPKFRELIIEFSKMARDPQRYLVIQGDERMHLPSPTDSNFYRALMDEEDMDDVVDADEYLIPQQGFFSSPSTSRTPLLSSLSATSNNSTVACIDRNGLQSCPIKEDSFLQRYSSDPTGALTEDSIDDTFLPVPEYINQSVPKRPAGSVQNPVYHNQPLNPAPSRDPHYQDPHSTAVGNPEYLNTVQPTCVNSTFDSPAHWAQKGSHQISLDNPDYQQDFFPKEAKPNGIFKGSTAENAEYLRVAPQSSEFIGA
- assay.procedure: Cell p-EGFR inhibition assay, HTRF, H1975-clone#23 (DEL19/C797S) cells
- details: 16 h treatment, pEGFR inhibition
Would you mind telling me the reported IC50 of each entry?
Number only, in nM; omit the unit.

q: Could you please provide reported IC50 for Cc1cc2cc(n1)-c1cnn(C)c1OC[C@H]1CCC(C1)CN1/C(=N/C2=O)Nc2cc(C)c(N3CCN([C@@H]4CCN(c5ccc(C6CCC(=O)NC6=O)nc5C)C[C@@H]4F)CC3)cc21 (stereo partly shown) ? Thanks!
a: 0.6

q: Supply reported IC50 belonging to this compound: COCC1(N2CCN(c3ccc4c(c3)N3CC5CC[C@H](COc6c(cnn6C)-c6cc(cc(C)n6)C(=O)/N=C/3N4)C5)CC2)CCN(c2ccc(C3CCC(=O)NC3=O)nc2C)CC1 (stereo partly shown)
a: 0.8

q: Return IC50 (reported value) for this compound: Cc1cc2cc(n1)-c1cnn(C)c1OC[C@H]1CCC(C1)CN1/C(=N/C2=O)Nc2ccc(N3CC4(CCN(C5CCN(c6cc(F)c([C@H]7CCC(=O)NC7=O)c(F)c6)CC5)CC4)C3)cc21
a: 2.2

q: Please look at this compound and report its IC50: Cc1cc2cc(n1)-c1cnn(C)c1OC[C@H]1CCC(C1)CN1/C(=N/C2=O)Nc2ccc(N3CCN(C4CCN(c5c(F)cc(NC6CCC(=O)NC6=O)cc5F)CC4)CC3)cc21 (stereo partly shown)
a: 1

q: Indicate the recorded IC50 value for this compound: Cc1cc2cc(n1)-c1c(C)nn(C)c1OC[C@H]1CC[C@H](C1)CN1/C(=N/C2=O)Nc2ccc(N3CCC(N4CCC(Nc5cc(F)c([C@H]6CCC(=O)NC6=O)c(F)c5)CC4)CC3)cc21 (single isomer, unassigned)
a: 1.69

q: Entry Cc1cc2cc(n1)-c1c(C)nn(C)c1OC[C@H]1CC[C@H](C1)CN1/C(=N/C2=O)Nc2ccc(N(C)C3CCN(C4CCN(c5cc(F)c([C@H]6CCC(=O)NC6=O)c(F)c5)CC4)CC3)cc21 needs its IC50 filled in; supply it.
a: 1.15

q: Read off the recorded IC50 for Cc1cc2cc(n1)-c1c(C)nn(C)c1OC[C@H]1CC[C@H](C1)CN1/C(=N/C2=O)Nc2ccc(N3[C@@H](C)CN(C4CCN(c5cc(F)c([C@H]6CCC(=O)NC6=O)c(F)c5)CC4)C[C@@H]3C)cc21
a: 3.18

q: Fill in reported IC50 for this entry: Cc1cc2cc(n1)-c1c(C)nn(C)c1OC[C@H]1CC[C@H](C1)CN1/C(=N/C2=O)Nc2ccc(N3CCN(C4CCN(c5cc(F)c([C@H]6CCC(=O)NC6=O)c(F)c5)CC4)C[C@@H]3CF)cc21
a: 1.6

q: Note IC50 for the compound shown: Cc1cc2cc(n1)-c1c(C)nn(C)c1OC[C@H]1CCC(C1)CN1/C(=N/C2=O)Nc2ccc(N3CCC(N(C)C4CCN(c5cc(F)c([C@H]6CCC(=O)NC6=O)c(F)c5)CC4)CC3)cc21
a: 1.44

q: For the compound Cc1cc2cc(n1)-c1cnn(C)c1OC[C@H]1CC[C@H](C1)CN1/C(=N/C2=O)Nc2ccc(N3CCN(C4CCN(c5ccc(NC6CCC(=O)NC6=O)cc5F)CC4)CC3)cc21 (stereo partly shown) , give its reported IC50.
a: 0.7

q: Consider the compound Cc1cc2cc(n1)-c1c(C)nn(C)c1OC[C@H]1CC[C@H](C1)CN1/C(=N/C2=O)Nc2ccc(N3CCN(CC4CN(c5cc(F)c([C@H]6CCC(=O)NC6=O)c(F)c5)C4)CC3)cc21 . State its measured IC50.
a: 2.92

q: Return reported IC50. Input compound: COC[C@H]1CN(c2ccc3c(c2)N2C[C@@H]4CC[C@H](COc5c(c(C)nn5C)-c5cc(cc(Cl)n5)C(=O)/N=C/2N3)C4)CCN1C1CCN(c2cc(F)c([C@H]3CCC(=O)NC3=O)c(F)c2)CC1
a: 3.6

q: Fill in IC50 for record Cc1cc2cc(n1)-c1c(C)nn(C)c1OC[C@H]1CCC(C1)CN1/C(=N/C2=O)Nc2ccc(N3CCN(C4CCN(c5cc(F)c([C@H]6CCC(=O)NC6=O)c(F)c5)CC4)CC3)cc21
a: 1.7

q: Annotate the compound CC[C@@H]1CN(c2ccc3c(c2)N2C[C@@H]4CC[C@H](COc5c(c(C)nn5C)-c5cc(cc(C)n5)C(=O)/N=C/2N3)C4)CCN1C1CCN(c2cc(F)c([C@H]3CCC(=O)NC3=O)c(F)c2)CC1 with its measured IC50.
a: 1.95

q: Please report IC50 for the following compound: Cc1cc2cc(n1)-c1cnn(C)c1OC[C@H]1CCC(C1)CN1/C(=N/C2=O)Nc2ccc(N3CCN(C4(CO)CCN(c5ccc(C6CCC(=O)NC6=O)nc5C)CC4)CC3)cc21 (stereo partly shown)
a: 0.4

q: Determine its reported IC50: COC[C@@H]1CN(c2ccc3c(c2)N2C[C@@H]4CC[C@H](COc5c(cnn5C)-c5cc(cc(C)n5)C(=O)/N=C/2N3)C4)CCN1CC1CN(c2ccc3c(c2)CN(C2CCC(=O)NC2=O)C3=O)C1 (stereo partly shown)
a: 0.2

q: Provide only the value of recorded IC50 for COC[C@@H]1CN(c2ccc3c(c2)N2C[C@@H]4CC[C@H](COc5c(c(C)nn5CCO)-c5cc(cc(C)n5)C(=O)/N=C/2N3)C4)CCN1C1CCN(c2cc(F)c([C@H]3CCC(=O)NC3=O)c(F)c2)CC1
a: 1.1

q: Look up and report measured IC50 for this entry: COC[C@H]1CN(c2ccc3c(c2)N2CC4CC[C@H](COc5c(c(C)nn5C)-c5cc(cc(C)n5)C(=O)/N=C/2N3)C4)CCN1C1CCN(c2cc(F)c(C3CCC(=O)NC3=O)nc2C)CC1 (stereo partly shown)
a: 2.5

q: State its IC50 for this compound: Cc1cc2cc(n1)-c1c(C)nn(C)c1OC[C@H]1CCC(C1)CN1/C(=N/C2=O)Nc2ccc(N3CCN([C@@H]4CCN(c5ccc(C6CCC(=O)NC6=O)nc5C)C[C@@H]4F)CC3)cc21 (stereo partly shown)
a: 0.3
